target: cJun (cJun/cJun homodimer) (UniProt P05412 1-331, C269S); experiment: EMSA; EMSA: 100 mM KCl, 4 mM MgCl2, 20 mM Tris pH 7.9, 20 mM HEPES pH 7.9, 10% glycerol, 0.1 mM DTT, 60 ug/ml BSA, 0.06% NP-40, 50 ng poly(dI-dC), on ice; 50 pM 32P-D; settings: protein: recombinant; chain copies: 2; label: 32P or 5'-Cy5; blunt
pKd: −log10 of the molar value.
ATTRIBUTE MEASURED: pKd

Prompt: I would be grateful if you could share the reported pKd for AP-1 DNA (dsDNA) DNA 1: AGGTCGTGACTCAGCGG DNA 2: CCGCTGAGTCACGACCT .
Completion: ~7.82
